Target of assay: 5HT2B receptors (Homo sapiens, UniProt P41595)
Construct: expressed in transfected cells; host or cells: CHO-K1 cells
Sequence (P41595 whole entry): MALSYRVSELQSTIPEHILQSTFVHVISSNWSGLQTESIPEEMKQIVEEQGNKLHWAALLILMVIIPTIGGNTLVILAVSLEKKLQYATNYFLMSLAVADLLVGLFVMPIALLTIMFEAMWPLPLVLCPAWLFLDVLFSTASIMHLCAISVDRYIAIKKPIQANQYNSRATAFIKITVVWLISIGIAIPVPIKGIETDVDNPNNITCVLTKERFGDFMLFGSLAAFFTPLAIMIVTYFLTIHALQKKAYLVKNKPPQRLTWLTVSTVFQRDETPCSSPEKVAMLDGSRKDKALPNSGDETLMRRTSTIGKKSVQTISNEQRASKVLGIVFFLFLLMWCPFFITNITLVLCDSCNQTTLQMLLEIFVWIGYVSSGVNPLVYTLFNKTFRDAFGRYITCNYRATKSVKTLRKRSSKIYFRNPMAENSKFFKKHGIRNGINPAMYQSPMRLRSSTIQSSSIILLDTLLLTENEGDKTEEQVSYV
Test protocol: Human 5-HT2B functional high throughput screening assay in CHO-K1 cells (calcium flux)
Assay type: cell-based
Measurement parameters: 5-HT2B; maximum functional response as percentage relative to the effect of serotonin
Measured endpoint: Emax

Illustrative cases are given below, each with its answer.
molecule="C[C@H](O)c1cccc(-c2ccc3c(c2)C(=O)NC[C@H]2CN(C)C[C@H]32)c1 [Example 248]" meas_value=inactive
molecule="CN1C[C@H]2CNC(=O)c3cc(C(=O)N4CCCCC4)ccc3[C@@H]2C1 (relative stereo)" meas_value=inactive
molecule="O=C1NC[C@@H]2CN(Cc3ccccc3)C[C@@H]2c2cccc(F)c21 (relative stereo)" meas_value=inactive
molecule="CN1C[C@H]2CNC(=O)c3ccc(F)cc3[C@@H]2C1 (relative stereo)" meas_value=inactive
molecule="CNC(=O)c1ccc(-c2cccc3c2OCC[C@H]2CNC[C@H]32)cc1 (relative stereo)" meas_value=inactive

Reported 5HT2B receptors (Homo sapiens, UniProt P41595) Emax for item CN1C[C@H]2CNC(=O)c3cc(OCC4CCCCC4)ccc3[C@@H]2C1 (relative stereo) was inactive

Reported 5HT2B receptors (Homo sapiens, UniProt P41595) Emax for item O=C1NC[C@@H]2CN(Cc3ccccc3)C[C@H]2c2cc(F)ccc21 (relative stereo) was inactive
